# Test system: MDA-N
# measurementNotes: NCI tumour cell line growth inhibition, 48 h
Entries and their TGI values follow.
readoutLabel: TGI

INSERT INTO measurements (molecule, experimentalresult) VALUES
  ('CN(NC(=O)/C(=C/c1ccc(Cl)cc1)NC(=O)c1ccccc1)c1cn[nH]c(=O)c1Cl', '> 100 µM'),
  ('COc1ccc(N2C(=O)C3c4[nH]c5ccccc5c4C4CCC(c5ccccc5)CC4C3C2=O)cc1 (stereo unspecified)', '> 81.5 µM'),
  ('COC(=O)Cc1cccc2c1CCC2=O', '> 100 µM'),
  ('CC(=O)Oc1ccc2[nH]c3c(C)c4cccc-4ccc3c2c1', '4.93 µM'),
  ('O=C1NC2c3c(I)sc(I)c3/C(=N\O)C2O1 (stereo unspecified)', '> 100 µM'),
  ('Cc1ccc(C)c2c1C/C(=C\c1ccccc1C(=O)O)C2=O', '> 100 µM'),
  ('CCN(CC)CCn1ncc2c3c(=O)c4cccnc4n(CCN(CC)CC)c3ccc21', '> 10 µM'),
  ('CC(=O)OC1CC2CC(=O)CC1N2C (stereo unspecified)', '> 100 µM'),
  ('O=C1C=CC(=O)c2c(O)c(N3CCN(c4ccccn4)CC3)c(Cl)c(O)c21', '2.81 µM'),
  ('COC(=O)C1(NC(=O)C(CC(=O)OCc2ccccc2)NC(=O)OCc2ccccc2)CCCCCCC1 (stereo unspecified)', '> 100 µM'),
  ('CCN1C(=O)C(=C/C=C/c2ccc(OC)cc2)C(=O)N(CC)C1=S', '36.6 µM'),
  ('CCC1=C(C)C(=O)N/C1=C\c1[nH]c(C)c([C@H](C)CCN)c1C', '29.1 µM'),
  ('Oc1c(CN2CCOCC2)ccc(CN2CCOCC2)c1O', '> 100 µM'),
  ('C[n+]1cn(C2=C([O-])c3ccccc3C(=O)/C2=N\S(=O)(=O)c2ccccc2)c2ccccc21', '26.6 µM'),
  ('CC(CCOc1c2ccoc2cc2oc(=O)ccc12)C1=CC(=O)C(C)(C)O1 (stereo unspecified)', '> 100 µM'),
  ('CCC(O)CC1OC2(CCC1C)CC1OC(=O)/C=C\C(C)(O)C(O)C(C)C(O)C(OC3CC(OC)C(O)C(C)O3)C(O)C(C)(O)CCC/C=C/C3CC(C)COC3(O)CC(O2)C1C (stereo unspecified)', '23.8 µM'),
  ('O=C(CN=C(CN(c1ccccc1)c1ccccc1)Oc1c(Cl)cc(Cl)cc1Cl)N1c2ccccc2Sc2ccccc21', '> 100 µM'),
  ('Cc1cc(-n2c(/C=C/c3ccc(Cl)cc3)nc3cc(Cl)ccc3c2=O)on1', '> 50 µM'),
  ('c1cc(-c2ccc(-c3ccc(-c4ccc(-c5cccc6nsnc56)[nH]4)c4nsnc34)[nH]2)c2nsnc2c1', '> 100 µM'),
  ('NCCc1c[nH]c2ccc(OC(=O)C(=O)O)cc12', '> 100 µM'),
  ('COC(=O)[C@]12CC[C@H]3CN(C(=O)OCc4ccccc4)[C@H]([C@H]31)[C@H](c1ccco1)N2', '> 100 µM'),
  ('O=C(NCCOC(=O)OCCNC(=O)NC1CCCCC1)NC1CCCCC1', '> 100 µM'),
  ('CC1=NCC[N+]1(CCc1ccccc1)Cc1ccccc1 (stereo unspecified)', '> 100 µM'),
  ('O=C1C=CC(=O)c2c(O)ccc(O)c21', '8.18 µM'),
  ('CN(/N=C(\C(=O)O)c1ccccc1)C1=NCCCCN1', '> 100 µM'),
  ('O=C(C=P(c1ccccc1)(c1ccccc1)c1ccccc1)c1ccc(-c2cccc([N+](=O)[O-])c2)cc1', '9.09 µM'),
  ('CC1=C(C(=O)OCc2ccncc2)C(C2=C(C)SCCS2)C(C(=O)OCc2ccncc2)=C(C)N1', '72.8 µM'),
  ('COc1cc(/C=C2/SC(c3ccccc3)N(c3cccc(NC(C)=O)c3)C2=O)cc(OC)c1OC (stereo unspecified)', '> 100 µM'),
  ('CCC1CC(C)C(O)/C=C/C=C/CC(C)OC(=O)CC(O)C(OC)C1OC1OC(C)CC(O)(C(C)=O)C1O (stereo unspecified)', '> 100 µM'),
  ('c1cc(-c2ccc(-c3ccc(C4=NCCCN4)cc3)o2)ccc1C1=NCCCN1', '> 100 µM'),
  ('Cc1nn(C(=O)c2ccccc2O)c2c1C(c1ccccc1O)SC(N)=N2 (stereo unspecified)', '> 10 µM'),
  ('Cc1ccc(NC(=O)/C(CC2N=c3c(ccc4c(O)c5ccccc5c(O)c34)=NC2O)=N/NC(C)(C)C)cc1 (stereo unspecified)', '> 100 µM'),
  ('COc1ccc(/C=C/c2nsc(/C=C/c3ccc(OC)cc3)n2)cc1', '> 100 µM'),
  ('C[C@]12CC[C@H](O)CC1=CC[C@@H]1C2CC[C@]2(C)c3n[nH]nc3CC12 (stereo partly specified)', '> 100 µM'),
  ('CC1CN=C(N(Cc2ccc(F)cc2)C(=O)Nc2ccc(Cl)cc2)S1 (stereo unspecified)', '61.1 µM'),
  ('CCc1c(-c2ccc(OC)cc2)c(=O)oc2cc(O)ccc12', '> 100 µM'),
  ('CC(/C=N/N(C)C1=NCCCN1)=N/N(C)C1=NCCCN1', '> 100 µM'),
  ('COC1=CC(=O)c2c(ccc3ncnc(N)c23)C1=O', '0.889 µM'),
  ('CN1CCCC1c1cccnc1.O=C(O)c1ccccc1O.O=C([O-])c1ccccc1[OH2+].O=C([O-])c1ccccc1[OH2+].O=C([O-])c1ccccc1[OH2+].[Cu+2] (stereo unspecified)', '> 100 µM'),
  ('N#CC[C@@H](O)COc1ccccc1', '> 100 µM'),
  ('COc1ccc(C2/C(=C(\O)c3ccccc3)C(=O)C(O)(CC(=O)c3ccccc3)N2c2ccc(OC)cc2)cc1 (stereo unspecified)', '82.5 µM');
